Where do the numbers come from? From ChEMBL document CHEMBL1201862.

test system: HL-60; assay: NCI tumour cell line growth inhibition, 48 h
Activity calls are given as the source filed them. Cut-off read from the data, not from the text of the source: active = GI50 up to about 1.1 µM and inactive = higher.
The reply should name one outcome from 1 = active, 0 = inactive

Sample answers from the record:
c1ccc([P+](CCCCCCCC[P+](c2ccccc2)(c2ccccc2)c2ccccc2)(c2ccccc2)c2ccccc2)cc1	1
CC(=O)OCC1OC(n2c3c(c(-c4ccco4)c(C#N)c2=S)CCC3)C(OC(C)=O)C(OC(C)=O)C1OC(C)=O (centres undefined)	0

Query: recorded result category for COc1cc(C2C(C(=O)O)=C(CO)Oc3cc4c(cc32)OCO4)cc(OC)c1O (centres undefined) in this test
0

Query: recorded result category for CC(=O)CC1(OC(=O)C2C(C=C(C)C)C2(C)C)C(=O)Nc2ccccc21 (centres undefined) in this test
0

Query: recorded result category for O=C1CCCC2C(O)CCC[C@H]12 (some centres undefined) in this test
0

Query: recorded result category for COc1cc2c3c(n(C)c(=O)c2cc1OC)-c1cc2c(cc1C3=O)OCO2 in this test
0

Query: recorded result category for CC1=C(C(=O)NCCCN(CCO)CCO)CC(C(=O)NCCCN(CCO)CCO)=C(C)N1 in this test
0
